# target.of.assay: Serine/threonine-protein kinase PLK1 (Homo sapiens, UniProt P53350)
# Sequence (P53350 whole entry): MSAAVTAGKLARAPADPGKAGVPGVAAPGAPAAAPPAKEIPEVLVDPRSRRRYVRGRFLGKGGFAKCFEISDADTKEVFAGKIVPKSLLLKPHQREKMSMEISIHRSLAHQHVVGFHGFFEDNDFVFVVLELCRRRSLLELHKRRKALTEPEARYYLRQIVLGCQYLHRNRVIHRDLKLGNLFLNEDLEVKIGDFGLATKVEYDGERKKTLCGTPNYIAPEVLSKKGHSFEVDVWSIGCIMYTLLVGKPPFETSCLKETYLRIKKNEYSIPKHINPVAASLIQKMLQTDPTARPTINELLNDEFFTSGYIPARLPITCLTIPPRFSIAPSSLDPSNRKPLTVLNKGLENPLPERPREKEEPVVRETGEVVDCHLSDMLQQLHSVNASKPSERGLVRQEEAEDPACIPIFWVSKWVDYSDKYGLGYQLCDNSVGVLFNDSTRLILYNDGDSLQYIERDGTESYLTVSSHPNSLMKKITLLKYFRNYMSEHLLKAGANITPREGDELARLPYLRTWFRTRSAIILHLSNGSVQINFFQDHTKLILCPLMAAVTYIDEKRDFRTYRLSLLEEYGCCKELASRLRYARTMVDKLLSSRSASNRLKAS
observable: IC50

State IC50 on Serine/threonine-protein kinase PLK1 (Homo sapiens, UniProt P53350). Entry: CNC(=O)c1nn(C)c2c1C(C)(C)Cc1cnc(Nc3ccc(N4CCN(C)CC4)cc3)nc1-2
> 10 µM

----------
# measurement.notes: Solubility at pH 7
# Format: physicochemical
# test.context: buffer
The label depends only on solubility: true if it is at least 50 µM, false if it is smaller.

Reported solubility at or above 50 µM? CN1CCN(c2ccc(Nc3ncc4c(n3)-c3c(c(C(N)=O)nn3C)CC4)cc2)CC1
true

Reported solubility at or above 50 µM? CN1CCN(c2cccc(Nc3ncc4c(n3)-c3c(c(C(N)=O)nn3C)CC4)c2)CC1
false

Reported solubility at or above 50 µM? CN1CCN(c2ccc(Nc3ncc4c(n3)-c3c(c(C(N)=O)nn3C)C(C)(C)C4)cc2)CC1
true

Reported solubility at or above 50 µM? CNC(=O)c1nn(C)c2c1C(C)(C)Cc1cnc(Nc3ccc(CN4CCOCC4)cc3)nc1-2
true

Reported solubility at or above 50 µM? CNC(=O)c1nn(C)c2c1CCc1cnc(Nc3ccccc3)nc1-2
false
